B1: RHOBTB2 (parent)
chain: NQEITKAFHVRRTNRVKECLAKGT

variants of: B1; assay: protein stability index of a GFP-peptide fusion (GPS, HEK-293T) (PSI 1-6); higher = more stable; conditions: c terminus: a fixed tail appended;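 also: lentivirally expressed fusions sorted by FACS into six bins by GFP to DsRed ratio, PSI derived from sequencing read proportions per bin multiplied by bin number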
Measure name: protein stability index

> print(dat)
    mutation.descriptor  endpoint.result
 1                 R12S             3.95
 2                 R15L             3.36
 3                  K6P             4.09
 4                 R11Y             2.94
 5                 T24N             3.36
 6                  F8G             4.63
 7                  A7M             2.48
 8                 V10Q             3.84
 9                 E18P             2.59
10                 N14M             2.54

Where do the numbers come from? From the supplement of paper PMC10567573.
